TGI reference
- System: OVCAR-4 ovarian
- test-description: NCI tumour cell line growth inhibition, 48 h

{"molecule": "Cc1ccc(Cl)cc1Nc1nc(C(F)(F)F)ccc1C(=O)N1CCN(c2cccc(Cl)c2)CC1", "TGI": "> 100 µM"}
{"molecule": "O=c1n(-c2ccccc2)c(=O)n2n1C1C=CC2C2C(C1)C2(Cl)Cl (stereo not drawn)", "TGI": "> 100 µM"}
{"molecule": "Cc1nc2ccccc2nc1-c1ccc(N=[N+]([O-])c2ccc(-c3nc4ccccc4nc3C)cc2)cc1", "TGI": "> 100 µM"}
{"molecule": "COc1cc(CNCCCN2C(=O)c3ccc4c5c(ccc(c35)C2=O)C(=O)N(CCCNCc2cc(OC)c(OC)c(OC)c2)C4=O)cc(OC)c1OC", "TGI": "0.149 µM"}
{"molecule": "CCN(CC)CCOc1ccc(/C=C2\\CC3C4CC=C5C[C@@H](O)CC[C@]5(C)C4CC[C@]3(C)C2=O)cc1OC (stereo partly drawn)", "TGI": "45.9 µM"}
{"molecule": "CC(C)(C)[Si](C)(C)OC1/C(=C/C#N)C(n2ccc(=O)[nH]c2=O)OC1CO (stereo not drawn)", "TGI": "> 100 µM"}
{"molecule": "Cc1c(Cl)cccc1N1C(=O)C(Cl)=C(Cl)C1=O", "TGI": "> 100 µM"}
{"molecule": "COC(=O)C1C=CN(N(C)C)C2=C1C(=O)c1c(O)cccc1C2=O (stereo not drawn)", "TGI": "5.57 µM"}
{"molecule": "CCOC(=O)c1ccc(C(=O)/C(C#N)=C2\\CCCN2C)[nH]1", "TGI": "> 100 µM"}
{"molecule": "COc1ccc(C(OCC2OC(n3cc(C)c(=O)[nH]c3=O)CC2n2cc(Cn3cc(Br)c(=O)[nH]c3=O)nn2)(c2ccccc2)c2ccccc2)cc1 (stereo not drawn)", "TGI": "> 100 µM"}
{"molecule": "N#C/C=C(\\c1ccc([N+](=O)[O-])cc1)n1nnc2cc(Cl)c(Cl)cc21", "TGI": "2.89 µM"}
{"molecule": "Cc1ccc(S(=O)(=O)N/N=C/c2oc(-c3ccncc3)c(-c3ccncc3)c2[N+](=O)[O-])cc1", "TGI": "> 100 µM"}
{"molecule": "C[C@H]1NC(=O)C2CCCCN2C(=O)CN(C)C(=O)CNC(=O)C2CCCCN2C(=O)[C@@H](NC(=O)c2nc3ccccc3cc2O)[C@@H](C)NC(=O)C2CCCCN2C(=O)CN(C)C(=O)CNC(=O)[C@@H]2CCCCN2C(=O)C1NC(=O)c1nc2ccccc2cc1O (stereo partly drawn)", "TGI": "5.48 µM"}
{"molecule": "CCOC(=O)c1cc(C2(O)CCN(CC(C)CC)C2=O)c(-c2cc(C)no2)[nH]1 (stereo not drawn)", "TGI": "> 100 µM"}
{"molecule": "C[C@H]1Oc2cc(cnc2N)-c2c(nn(C)c2C#N)CN(C)C(=O)c2ccc(F)cc21", "TGI": "> 100 µM"}
{"molecule": "Cn1cnc([N+](=O)[O-])c1S(=O)(=O)Oc1ccccc1", "TGI": "15.1 µM"}
{"molecule": "COc1cc2c(cc1O)C1C(O)C(O)C=C3CCN(C2)C31 (stereo not drawn)", "TGI": "4.84 µM"}
{"molecule": "CCCCn1c(C)c2c(c1C)C(=O)N(CC(O)CN1CCc3ccccc3C1)C2=O (stereo not drawn)", "TGI": "> 100 µM"}
